Heads up, these compounds all have IC50 values measured for MERS-CoV 3CLpro (Middle East respiratory syndrome-related coronavirus, UniProt K9N638).

Prompt: I'd like to know its IC50. The compound in question is CC1(C)C[C@H]2C(=O)N[C@H](C#N)C[C@@H]3C(=O)NC[C@@H]3CCCC[C@H](NC(=O)OC(C)(C)C)C(=O)N2C1
Completion: 100 to 1000 nM

Prompt: Try this compound too: Cc1nc(C(=O)N[C@H]2CCCC[C@H]3CNC(=O)[C@H]3C[C@@H](C#N)NC(=O)[C@@H]3[C@@H]4[C@H](CN3C2=O)C4(C)C)co1
Completion: < 100 nM

Prompt: Try this compound too: CC(C)(C(=O)N[C@H]1CCCC[C@H]2CNC(=O)[C@H]2C[C@@H](C#N)NC(=O)[C@@H]2[C@@H]3[C@H](CN2C1=O)C3(C)C)c1ccc(Cl)cc1
Completion: 100 to 1000 nM

Prompt: Try this compound too: CC(C)C[C@@H]1NC(=O)[C@@H](Cc2ccccc2)CCC[C@H]2CNC(=O)[C@@H]2C[C@@H](C=O)NC1=O [Example 17]
Completion: 100 to 1000 nM

Prompt: Try this compound too: CC(C)(C)C(=O)N[C@H]1CCCC[C@H]2CNC(=O)[C@H]2C[C@@H](C#N)NC(=O)[C@H](C2CCCC2)NC1=O
Completion: 100 to 1000 nM

Prompt: Try this compound too: CC1(C)[C@@H]2[C@H]3C(=O)N[C@H](C#N)C[C@@H]4C(=O)NC[C@@H]4CCCC[C@H](NS(=O)(=O)C4(C)CC4)C(=O)N3C[C@@H]21
Completion: < 100 nM

Prompt: Try this compound too: CC1(C)[C@@H]2[C@H]3C(=O)N[C@H](C#N)C[C@@H]4C(=O)NC[C@@H]4CCCC[C@H](NC(=O)C(C)(C)C(F)(F)F)C(=O)N3C[C@@H]21
Completion: < 100 nM

Prompt: Try this compound too: CC(C)C[C@@H]1NC(=O)[C@@H](OC(C)(C)C)CCC[C@H]2CNC(=O)[C@@H]2C[C@@H](C#N)NC1=O
Completion: > 20000 nM

Prompt: Try this compound too: CC(C)C[C@@H]1NC(=O)CCCCC[C@H]2CCNC(=O)[C@@H]2C[C@@H](C=O)NC1=O
Completion: 1000 to 20000 nM

Prompt: Try this compound too: CC(C)(C)C[C@@H]1NC(=O)[C@@H](NC(=O)c2ccc(Cl)c(Cl)c2)CCCC[C@H]2CNC(=O)[C@H]2C[C@@H](C#N)NC1=O
Completion: < 100 nM

Prompt: Try this compound too: CC(C)C[C@@H]1NC(=O)CCCC[C@H]2CNC(=O)[C@@H]2C[C@@H](C#N)NC1=O
Completion: 1000 to 20000 nM

Prompt: Try this compound too: N#C[C@@H]1C[C@@H]2C(=O)NC[C@@H]2CCCC[C@H](NC(=O)C2(C(F)(F)F)CC2)C(=O)N2C[C@@H]3CCC[C@@H]3[C@H]2C(=O)N1
Completion: < 100 nM

Prompt: Try this compound too: CC(C)C[C@@H]1NC(=O)[C@@H](CC2CCCC2)CCC[C@H]2CNC(=O)[C@@H]2C[C@@H](C=O)NC1=O
Completion: 100 to 1000 nM

Prompt: Try this compound too: CC(C)C[C@@H]1NC(=O)CCCC[C@@H]2CNC(=O)[C@@H]2C[C@@H](C=O)NC1=O
Completion: > 20000 nM

Prompt: Try this compound too: CC(C)C[C@@H]1NC(=O)[C@H](Cc2ccccc2)CCC[C@H]2CNC(=O)[C@@H]2C[C@@H](C=O)NC1=O
Completion: 100 to 1000 nM

Prompt: Try this compound too: CC1(C)[C@@H]2[C@H]3C(=O)N[C@H](C#N)C[C@@H]4C(=O)NC[C@@H]4CCCC[C@H](NC(=O)C45CC(C(F)(F)F)(C4)C5)C(=O)N3C[C@@H]21
Completion: < 100 nM

Prompt: Try this compound too: CC(C)C[C@@H]1NC(=O)[C@H](Cc2ccccc2)CCC[C@@H]2CNC(=O)[C@@H]2C[C@@H](C=O)NC1=O
Completion: 1000 to 20000 nM

Prompt: Try this compound too: CC(C)C[C@@H]1NC(=O)[C@@H](Cc2ccccc2)CCC[C@H]2CNC(=O)[C@@H]2C[C@@H](C=O)NC1=O [Example 10]
Completion: 1000 to 20000 nM

Prompt: Try this compound too: CC1(C)[C@@H]2[C@H]3C(=O)N[C@H](C#N)C[C@@H]4C(=O)NC[C@@H]4CCCC[C@H](NC(=O)c4cncnc4)C(=O)N3C[C@@H]21
Completion: < 100 nM

Prompt: Try this compound too: Cc1cc(C(=O)N[C@H]2CCCC[C@H]3CNC(=O)[C@H]3C[C@@H](C#N)NC(=O)[C@@H]3[C@@H]4[C@H](CN3C2=O)C4(C)C)on1
Completion: < 100 nM

Prompt: Try this compound too: CN1C(=O)[C@@H](NC(=O)C(C)(C)C)CCCC[C@H]2CNC(=O)[C@H]2C[C@@H](C#N)NC(=O)[C@@H]1CC(C)(C)C
Completion: 1000 to 20000 nM

Prompt: Try this compound too: CC(C)C[C@@H]1NC(=O)CCCCCC[C@H]2CNCC(=O)[C@@H]2C[C@@H](C=O)NC1=O
Completion: 1000 to 20000 nM

Prompt: Try this compound too: CC(C)C[C@@H]1NC(=O)[C@@H](OC(C)(C)C)CCC[C@H]2CNC(=O)[C@@H]2C[C@@H](C=O)NC1=O
Completion: > 20000 nM

Prompt: Try this compound too: CC(C)(C)OC(=O)N[C@H]1CCCC[C@H]2CNC(=O)[C@H]2C[C@@H](C#N)NC(=O)[C@@H]2[C@H]3CCC[C@H]3CN2C1=O
Completion: 100 to 1000 nM

Prompt: Try this compound too: CC1(C)[C@@H]2[C@H]3C(=O)N[C@H](C#N)C[C@@H]4C(=O)NC[C@@H]4CCCC[C@H](NC(=O)OC4CCCC4)C(=O)N3C[C@@H]21
Completion: < 100 nM
